Entry source: the supplement of paper PMC11246515

- Assay Notes: total protein half-life in vivo (active degradation + dilution); higher = more stable protein
- Condition Context: E. coli NCM3722 delta-smpB; growth: N-lim chemostat; doubling time 6 h
Quick reference for total protein half-life in vivo among some sequences
Give just the number in h; leave the unit off.

These solved cases illustrate the format of a correct answer.
Sequence Data	total protein half-life in vivo, h
MQTEHVILLNAQGVPTGTLEKYAAHTADTRLHLAFSSWLFNAKGQLLVTRRALSKKAWPGVWTNSVCGHPQLGESNEDAVIRRCRYELGVEITPPESIYPDFRYRATDPSGIVENEVCPVFAARTTSALQINDDEVMDYQWCDLADVLHGIDATPWAFSPWMVMQATNREARKRLSAFTQLK	4.42
MSNPILSWRRVRALCVKETRQIVRDPSSWLIAVVIPLLLLFIFGYGINLDSSKLRVGILLEQRSEAALDFTHTMTGSPYIDATISDNRQELIAKMQAGKIRGLVVIPVDFAEQMERANATAPIQVITDGSEPNTANFVQGYVEGIWQIWQMQRAEDNGQTFEPLIDVQTRYWFNPAAISQHFIIPGAVTIIMTVIGAILTSLVVAREWERGTMEALLSTEITRTELLLCKLIPYYFLGMLAMLLCMLVSVFILGVPYRGSLLILFFISSLFLLSTLGMGLLISTITRNQFNAAQVALNAAFLPSIMLSGFIFQIDSMPAVIRAVTYIIPARYFVSTLQSLFLAGNIPVVLVVNVLFLIASAVMFIGLTWLKTKRRLD [P0AFQ2]	6.04

Shift focus to the following entry.
// total protein half-life in vivo value for MTDVLLCVGNSMMGDDGAGPLLAEKCAAAPKGNWVVIDGGSAPENDIVAIRELRPTRLLIVDATDMGLNPGEIRIIDPDDIAEMFMMTTHNMPLNYLIDQLKEDIGEVIFLGIQPDIVGFYYPMTQPIKDAVETVYQRLEGWEGNGGFAQLAVEEE [P0AEV9] : 3.72

====

Quick reference for total protein half-life in vivo among some sequences
- Assay Notes: total protein half-life in vivo (active degradation + dilution); higher = more stable protein
- Condition Context: wild type E. coli NCM3722; growth: P-lim chemostat; doubling time 6 h
Give just the number in h; leave the unit off.

1) MKKRVYLIAAVVSGALAVSGCTTNPYTGEREAGKSAIGAGLGSLVGAGIGALSSSKKDRGKGALIGAAAGAALGGGVGYYMDVQEAKLRDKMRGTGVSVTRSGDNIILNMPNNVTFDSSSATLKPAGANTLTGVAMVLKEYPKTAVNVIGYTDSTGGHDLNMRLSQQRADSVASALITQGVDASRIRTQGLGPANPIASNSTAEGKAQNRRVEITLSPL 5.82

Shift focus to the following entry.
// total protein half-life in vivo value for MKALSPIAVLISALLLQGCVAAAVVGTAAVGTKAATDPRSVGTQVDDGTLEVRVNSALSKDEQIKKEARINVTAYQGKVLLVGQSPNAELSARAKQIAMGVDGANEVYNEIRQGQPIGLGEASNDTWITTKVRSQLLTSDLVKSSNVKVTTENGEVFLMGLVTEREAKAAADIASRVSGVKRVTTAFTFIK : 5.78

====

- Assay Notes: total protein half-life in vivo (active degradation + dilution); higher = more stable protein
- Condition Context: E. coli NCM3722 delta-smpB; growth: N-lim chemostat; doubling time 6 h
Measurement Name: total protein half-life in vivo (h)
Give just the number in h; leave the unit off.

These solved cases illustrate the format of a correct answer.
Sequence Data	Measurement Name	Output Unit	Measured Result
MHYQPKQDLLNDRIILVTGASDGIGREAAMTYARYGATVILLGRNEEKLRQVASHINEETGRQPQWFILDLLTCTSENCQQLAQRIAVNYPRLDGVLHNAGLLGDVCPMSEQNPQVWQDVMQVNVNATFMLTQALLPLLLKSDAGSLVFTSSSVGRQGRANWGAYAASKFATEGMMQVLADEYQQRLRVNCINPGGTRTAMRASAFPTEDPQKLKTPADIMPLYLWLMGDDSRRKTGMTFDAQPGRKPGISQ	total protein half-life in vivo	h	3.62
MFNEVHSIHGHTLLLITKSSLQATALLQHLKQSLAITGKLHNIQRSLDDISSGSIILLDMMEADKKLIHYWQDTLSRKNNNIKILLLNTPEDYPYRDIENWPHINGVFYSMEDQERVVNGLQGVLRGECYFTQKLASYLITHSGNYRYNSTESALLTHREKEILNKLRIGASNNEIARSLFISENTVKTHLYNLFKKIAVKNRTQAVSWANDNLRR	total protein half-life in vivo	h	0.772
MWIGIISLFPEMFRAITDYGVTGRAVKNGLLSIQSWSPRDFTHDRHRTVDDRPYGGGPGMLMMVQPLRDAIHAAKAAAGEGAKVIYLSPQGRKLDQAGVSELATNQKLILVCGRYEGIDERVIQTEIDEEWSIGDYVLSGGELPAMTLIDSVSRFIPGVLGHEASATEDSFAEGLLDCPHYTRPEVLEGMEVPPVLLSGNHAEIRRWRLKQSLGRTWLRRPELLENLALTEEQARLLAEFKTEHAQQQHKHDGMA [P0A873]	total protein half-life in vivo	h	4.21
MKVGFIGLGIMGKPMSKNLLKAGYSLVVADRNPEAIADVIAAGAETASTAKAIAEQCDVIITMLPNSPHVKEVALGENGIIEGAKPGTVLIDMSSIAPLASREISEALKAKGIDMLDAPVSGGEPKAIDGTLSVMVGGDKAIFDKYYDLMKAMAGSVVHTGEIGAGNVTKLANQVIVALNIAAMSEALTLATKAGVNPDLVYQAIRGGLAGSTVLDAKAPMVMDRNFKPGFRIDLHIKDLANALDTSHGVGAQLPLTAAVMEMMQALRADGLGTADHSALACYYEKLAKVEVTR [P0ABQ2]	total protein half-life in vivo	h	2.9
MNKTITALAIMMASFAANASVLPETPVPFKSGTGAIDNDTVYIGLGSAGTAWYKLDTQAKDKKWTALAAFPGGPRDQATSAFIDGNLYVFGGIGKNSEGLTQVFNDVHKYNPKTNSWVKLMSHAPMGMAGHVTFVHNGKAYVTGGVNQNIFNGYFEDLNEAGKDSTAIDKINAHYFDKKAEDYFFNKFLLSFDPSTQQWSYAGESPWYGTAGAAVVNKGDKTWLINGEAKPGLRTDAVFELDFTGNNLKWNKLAPVSSPDGVAGGFAGISNDSLIFAGGAGFKGSRENYQNGKNYAHEGLKKSYSTDIHLWHNGKWDKSGELSQGRAYGVSLPWNNSLLIIGGETAGGKAVTDSVLITVKDNKVTVQN	total protein half-life in vivo	h	6.27

Shift focus to the following entry.
// total protein half-life in vivo value for MKKIAAISLISIFIMSGCAVHNDETSIGKFGLAYKSNIQRKLDNQYYTEAEASLARGRISGAENIVKNDATHFCVTQGKKMQIVELKTEGVGLHGVARLTFKCGE : 6.04
